Tested on: MALME-3M melanoma
Experiment: NCI-60 one-dose screen, 48 h
Settings: 10 µM unless noted
This is part of a sample that, as a whole, favours compounds with a hit. Of some 83,000 tested, about 20% had one in any assay. Calls of active or inactive are those of the source. The calls were made as follows: active = growth percent below 10; inactive = the rest.
Outcomes: 1 = active, -1 = inactive

1. CC1(O)CC(c2nc(-c3ccc4ccc(-c5ccccc5)nc4c3)c3c(N)nccn23)C1 (stereo not drawn); -1
2. COC(=O)C1CCc2sc3ncnc(Nc4cn[nH]c4C(=O)Nc4ccc(CN5CCN(C)CC5)cc4)c3c21 (stereo not drawn); 1
3. CCN(CCO)CCCOc1ccc2c(Nc3cc(CC(=O)Nc4cccc(F)c4)[nH]n3)ncnc2c1; 1
4. CS(=O)(=O)N1CCc2c(-c3cnc(N)nc3)nc(N3CCOCC3)nc21; 1
5. N#CC[C@H](C1CCCC1)n1cc(-c2ncnc3[nH]ccc23)cn1; -1
6. CC(C)(C)c1nc(-c2cccc(NS(=O)(=O)c3c(F)cccc3F)c2F)c(-c2ccnc(N)n2)s1; -1
7. Cc1cc2c(-c3nc4ccccn4c3NC34CC5CC(CC(C5)C3)C4)c(O)c(O)cc2c(O)c1-c1c(C)cc2c(-c3nc4ccccn4c3NC34CC5CC(CC(C5)C3)C4)c(O)c(O)cc2c1O; 1
8. COc1cc(Nc2c(C#N)cnc3cc(OCCCN4CCN(C)CC4)c(OC)cc23)c(Cl)cc1Cl; 1
